test system: corn (Zea mays); experiment: Test C postemergence, corn; assay type: in vivo; settings: 31 g ai/ha Postemergence; visual injury, 0 to 100 scale (0 no effect, 100 complete control)
Recorded endpoint: Corn plant response rating
In your answer, state the number alone without any accompanying words.

Given item Cc1c(N2CCCC(OC3CC3)C2=O)cc(N(COC(=O)C(C)(C)C)S(=O)(=O)C(F)(F)F)c(C)c1F (stereo not drawn) , the value recorded as its Corn plant response rating is 10

Given item Cc1c(NS(=O)(=O)C(F)(F)F)cc(N2CCC(OC3CC3)C2=O)c(C)c1C (stereo not drawn) , the value recorded as its Corn plant response rating is 70

Given item Cc1c(N2CCC(OC3CCC3)C2=O)cc(N(COC(=O)C(C)(C)C)S(=O)(=O)C(F)(F)F)c(C)c1F (stereo not drawn) , the value recorded as its Corn plant response rating is 10

Given item C=CCO/N=C1\CCN(c2cc(NS(=O)(=O)C(F)(F)F)c(C)cc2C)C1=O , the value recorded as its Corn plant response rating is 90

Given item Cc1cc(C)c(N2CCC(OC3CC3)C2=O)cc1NS(=O)(=O)C(F)(F)F (single isomer, unassigned) [Compound 30] , the value recorded as its Corn plant response rating is 90

Given item Cc1cc(C)c(N2CCC(OC3COC3)C2=O)cc1NS(=O)(=O)C(F)(F)F (stereo not drawn) , the value recorded as its Corn plant response rating is 60

Given item COC(=O)N(c1cc(N2CCC(OC3CC3)C2=O)c(C)cc1C)S(=O)(=O)C(F)(F)F (stereo not drawn) , the value recorded as its Corn plant response rating is 0

Given item Cc1c(N2CCC(OC3CCC3)C2=O)cc(N(COC(=O)C(C)(C)C)S(=O)(=O)C(F)(F)F)c(C)c1C (stereo not drawn) , the value recorded as its Corn plant response rating is 0

Given item Cc1c(NS(=O)(=O)C(F)(F)F)cc(N2CCC(OCC3CC3)C2=O)c(C)c1F (stereo not drawn) , the value recorded as its Corn plant response rating is 0

Given item Cc1c(N2CCC(OC3CC3)C2=O)cc(N(COC(=O)C(C)(C)C)S(=O)(=O)C(F)(F)F)c(C)c1C (stereo not drawn) , the value recorded as its Corn plant response rating is 50

Given item Cc1cc(C)c(N(C(=O)OCC(C)C)S(=O)(=O)C(F)(F)F)cc1N1CCC(OC2CC2)C1=O (stereo not drawn) , the value recorded as its Corn plant response rating is 90

Given item CCCC(=O)OCN(c1cc(N2CCC(OC3CC3)C2=O)c(C)cc1C)S(=O)(=O)C(F)(F)F (stereo not drawn) , the value recorded as its Corn plant response rating is 90

====

tested on: wheat (Triticum aestivum); experiment: Test C preemergence, wheat; assay type: in vivo; conditions: 31 g ai/ha Preemergence; 0 is no effect, 100 is complete control
Record form. Attribute: Plant response rating (0 to 100 scale), Wheat. Fill in for each entry.
In your answer, state the number alone without any accompanying words.

For Cc1c(NS(=O)(=O)C(F)(F)F)cc(N2CCC(OC3CC3)C2=O)c(C)c1C (stereo not shown) [Compound 47] on wheat (Triticum aestivum), measured Plant response rating (0 to 100 scale), Wheat was 90

For Cc1c(N2CCC(OC3CC3)C2=O)cc(N(COC(=O)C(C)(C)C)S(=O)(=O)C(F)(F)F)c(C)c1C (stereo not shown) [Compound 49] on wheat (Triticum aestivum), measured Plant response rating (0 to 100 scale), Wheat was 30

For Cc1cc(C)c(N2CC/C(=N\O)C2=O)cc1NS(=O)(=O)C(F)(F)F [Compound 10] on wheat (Triticum aestivum), measured Plant response rating (0 to 100 scale), Wheat was 90

For Cc1c(N2CCCC(OC3CC3)C2=O)cc(N(COC(=O)C(C)(C)C)S(=O)(=O)C(F)(F)F)c(C)c1F (stereo not shown) [Compound 37] on wheat (Triticum aestivum), measured Plant response rating (0 to 100 scale), Wheat was 0

====

test system: galium (catchweed bedstraw, Galium aparine); assay: Test C postemergence, galium; type: in vivo; conditions: 31 g ai/ha Postemergence; visual injury, 0 to 100 scale (0 no effect, 100 complete control)
Recorded endpoint: Galium plant response rating
In your answer, state the number alone without any accompanying words.

Given item Cc1c(NS(=O)(=O)C(F)(F)F)cc(N2CCC(OC3CC3)C2=O)c(C)c1F (stereo not shown) , the value recorded as its Galium plant response rating is 100

Given item Cc1c(NS(=O)(=O)C(F)(F)F)cc(N2CCC(OC3CC3)C2=O)c(C)c1C (stereo not shown) , the value recorded as its Galium plant response rating is 80

Given item Cc1c(NS(=O)(=O)C(F)(F)F)cc(N2CCC(OC3CCC3)C2=O)c(C)c1F (stereo not shown) , the value recorded as its Galium plant response rating is 100

Given item CCCC(=O)OCN(c1cc(N2CCC(OC3CC3)C2=O)c(C)cc1C)S(=O)(=O)C(F)(F)F (stereo not shown) , the value recorded as its Galium plant response rating is 90

====

system: goosegrass (Eleusine indica); assay: Test C preemergence, goosegrass; assay type: in vivo; details: 31 g ai/ha Preemergence; 0 is no effect, 100 is complete control
Record form. Attribute: Plant response rating (0 to 100 scale), Goosegrass. Fill in for each entry.

Given item Cc1cc(C)c(N2CCC(OC3CC3)C2=O)cc1NS(=O)(=O)C(F)(F)F (single isomer, unassigned) [Compound 29] , the value recorded as its Plant response rating (0 to 100 scale), Goosegrass is 100

Given item Cc1cc(C)c(N(COC(=O)C(C)(C)C)S(=O)(=O)C(F)(F)F)cc1N1CCC(OCC2CC2(F)F)C1=O (stereo not shown) [Compound 54] , the value recorded as its Plant response rating (0 to 100 scale), Goosegrass is 20

Given item COC(=O)N(c1cc(N2CCC(OC3CC3)C2=O)c(C)cc1Cl)S(=O)(=O)C(F)(F)F (stereo not shown) [Compound 40] , the value recorded as its Plant response rating (0 to 100 scale), Goosegrass is 100

Given item COC(=O)N(c1cc(N2CCC(OC3CC3)C2=O)c(C)cc1C)S(=O)(=O)C(F)(F)F (stereo not shown) [Compound 16] , the value recorded as its Plant response rating (0 to 100 scale), Goosegrass is 0

Given item Cc1cc(C)c(N2CCC(OCc3ccccc3)C2=O)cc1NS(=O)(=O)C(F)(F)F (stereo not shown) [Compound 61] , the value recorded as its Plant response rating (0 to 100 scale), Goosegrass is 100

Given item Cc1cc(Cl)c(N(COC(=O)C(C)(C)C)S(=O)(=O)C(F)(F)F)cc1N1CCC(OC2CC2)C1=O (stereo not shown) [Compound 33] , the value recorded as its Plant response rating (0 to 100 scale), Goosegrass is 90

Given item CC(=O)N(c1cc(N2CCC(OC3CC3)C2=O)c(C)cc1Cl)S(=O)(=O)C(F)(F)F (stereo not shown) [Compound 38] , the value recorded as its Plant response rating (0 to 100 scale), Goosegrass is 100

====

test system: kochia (Bassia scoparia); assay: Test A postemergence, kochia; format: in vivo; details: post-emergence, 240 h, 125 g ai/ha, 0 to 100 scale, 10 days, read-out: Plant response rating, Kochia
Record form. Attribute: pest or weed control at 125 g/ha. Fill in for each entry.
Give the number; % is assumed, so skip it.

Given item Cc1cc(C)c(N2CCC(OC3CCCC3)C2=O)cc1NS(=O)(=O)C(F)(F)F (centres unmarked) [Compound 6] , the value recorded as its pest or weed control at 125 g/ha is 80

Given item Cc1cc(C)c(N2CCC(OC3CCC3)C2=O)cc1NS(=O)(=O)C(F)(F)F (centres unmarked) [Compound 4] , the value recorded as its pest or weed control at 125 g/ha is 90

Given item Cc1cc(C)c(N(COC(=O)C(C)(C)C)S(=O)(=O)C(F)(F)F)cc1N1CCC(OC2CC2)C1=O (centres unmarked) [Compound 7] , the value recorded as its pest or weed control at 125 g/ha is 80

Given item Cc1cc(C)c(N(COC(=O)C(C)(C)C)S(=O)(=O)C(F)(F)F)cc1N1CCC(OC2CCCC2)C1=O (centres unmarked) [Compound 5] , the value recorded as its pest or weed control at 125 g/ha is 70

Given item Cc1cc(C)c(N2CCC(OC3CC3)C2=O)cc1NS(=O)(=O)C(F)(F)F (centres unmarked) [Compound 3] , the value recorded as its pest or weed control at 125 g/ha is 100

Given item C=CCOC1CCN(c2cc(NS(=O)(=O)C(F)(F)F)c(C)cc2C)C1=O (centres unmarked) [Compound 2] , the value recorded as its pest or weed control at 125 g/ha is 60

Given item C#CCOC1CCN(c2cc(NS(=O)(=O)C(F)(F)F)c(C)cc2C)C1=O (centres unmarked) [Compound 1] , the value recorded as its pest or weed control at 125 g/ha is 80

Given item Cc1cc(C)c(N(COC(=O)C(C)(C)C)S(=O)(=O)C(F)(F)F)cc1N1CCC(OC2CCC2)C1=O (centres unmarked) [Compound 8] , the value recorded as its pest or weed control at 125 g/ha is 80
